Reported Activity values follow for various compounds
assayProtocol: Cytotoxicity against human PC3 cells assessed as reduction in cell viability at 50 uM after 48 hrs by resazurin-based prestoblue assay
Type: functional, PC-3
Write the value in % as a bare number.

Recorded Activity, per entry:
{"compound": "CCCCCCCCCCCCCC(=O)OCC(COP(=O)(O)OCCN)OC (racemic)", "reportedProperty": "Activity", "unitSymbol": "%", "observedMeasurement": 6.3}
{"compound": "CCCCCCCCCCCCCC(=O)OCC(COP(=O)(S)OCCN)OC (mixture of isomers)", "reportedProperty": "Activity", "unitSymbol": "%", "observedMeasurement": 43.8}
{"compound": "CCCCCCCCCCCCCCCC(=O)OCC(COP(=O)(O)OCCN)OC (racemic)", "reportedProperty": "Activity", "unitSymbol": "%", "observedMeasurement": 24.9}

Here is the next item to consider.
-- ask Recall and state the measured Activity for CCCCCCCCCCCCCCCC(=O)OCC(COP(=O)(S)OCCN)OC (centres undefined) .
-- reply 70
